- Test system: K562-A2 cells pulsed with STEAP peptide
- method.summary: Blocking of CTL lysis with antibodies BB7.2 / IVA12, LDH-release assay
- Type: cell-based, human
- settings: anti-HLA class II antibody IVA12 added to peptide-pulsed targets before 4-hour LDH-release assay
Exam item: assign 1 to entries whose Percent LDH released from K562-A2 pulsed +IVA12 is below 50% and -1 to entries at or above 50%. Note that a value of exactly 50% receives -1.

Consider the following illustrative entries.
Task: Item LLNWAYQQV (listed as Homo sapiens) [STEAP192-200] : Percent LDH released from K562-A2 pulsed +IVA12 beneath 50%, strictly?
Output: 1

Task: Item YLWGVIAAI [STEAP130-138 - 3W] : Percent LDH released from K562-A2 pulsed +IVA12 beneath 50%, strictly?
Output: -1

Task: Item YLPGVIAAI (listed as Homo sapiens) [STEAP130-138] : Percent LDH released from K562-A2 pulsed +IVA12 beneath 50%, strictly?
Output: 1

Task: Item YLPGVIAAV [STEAP130-138 - 9V] : Percent LDH released from K562-A2 pulsed +IVA12 beneath 50%, strictly?
Output: 1

Task: Item FLPGVIAAI [STEAP130-138 - 1F] : Percent LDH released from K562-A2 pulsed +IVA12 beneath 50%, strictly?
Output: -1

Task: Item FLWGVIAAV [STEAP130-138 - 1F/3W/9V] : Percent LDH released from K562-A2 pulsed +IVA12 beneath 50%, strictly?
Output: -1

Next item in the queue.
Task: Item LLSFFFAVL (listed as Homo sapiens) [STEAP166-174] : Percent LDH released from K562-A2 pulsed +IVA12 beneath 50%, strictly?
Output: 1
